Target: T1, CD30 on CD30-expressing tumor cell lines (HH, MJ, H9) (UniProt P28908 19-595)
T1 sequence (looked up): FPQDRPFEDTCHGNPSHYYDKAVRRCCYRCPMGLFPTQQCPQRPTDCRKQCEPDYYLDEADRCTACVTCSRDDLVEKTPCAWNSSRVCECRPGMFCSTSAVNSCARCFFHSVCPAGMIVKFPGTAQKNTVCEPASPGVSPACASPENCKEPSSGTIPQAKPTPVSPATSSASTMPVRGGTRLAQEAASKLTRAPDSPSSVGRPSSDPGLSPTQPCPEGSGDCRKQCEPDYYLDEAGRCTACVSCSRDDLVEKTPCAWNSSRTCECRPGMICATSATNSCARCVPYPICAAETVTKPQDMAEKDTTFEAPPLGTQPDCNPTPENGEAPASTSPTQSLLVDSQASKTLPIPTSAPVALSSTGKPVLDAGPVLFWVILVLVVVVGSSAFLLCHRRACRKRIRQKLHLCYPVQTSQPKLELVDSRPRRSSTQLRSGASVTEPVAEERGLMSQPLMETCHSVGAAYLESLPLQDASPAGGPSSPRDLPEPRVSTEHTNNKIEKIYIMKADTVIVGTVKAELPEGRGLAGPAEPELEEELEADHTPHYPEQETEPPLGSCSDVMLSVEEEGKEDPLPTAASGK
Assay: cell-based or functional assay
Quantity kind: % H9 cell lysis E:T = 2:1 (LDH assay, CAR T cells)
The reply must contain the numeric value and, after it, the unit.

The reported value for AS48542bbz CAR (other) QMQLVESGGGSVQAGETLRLSCTTSAFTFDGPDMAWYRQAPGNECVLVSIISADGRTYYADSVKGRFTISRDNAKNTVFLNLNSLQPEDTAVYYCALDPRKNCRGGYCCANWGPGTQVTVSSTTTPAPRPPTPAPTIASQPLSLRPEACRPAAGGAVHTRGLDFACDIYIWAPLAGTCGVLLLSLVITLYCKRGRKKLLYIFKQPFMRPVQTTQEEDGCSCRFPEEEEGGCELRVKFSRSADAPAYKQGQNQLYNELNLGRREEYDVLDKRRGRDPEMGGKPRRKNPQEGLYNELQKDKMAEAYSEIGMKGERRRGKGHDGLYQGLSTATKDTYDALHMQALPPR in terms of % H9 cell lysis E:T = 2:1 (LDH assay, CAR T cells) is 50%
